- Assay: Spheroids toxicity assay (alamarBlue)
- Format: cell-based
- Measurement Setup: human; HepG2 liver spheroids; read-out: Citotoxicity CC50 (μM) Sph
- Method: HepG2 cells were cultured as a monolayer under standard conditions, using DMEM/F12 medium supplemented with L-glutamine and 15 mM HEPES buffer (pH 7.2) supplemented with 10% fetal bovine serum (FBS) and antibiotic mixture (100 U/mL penicillin and 100 µg/mL streptomycin) at 37 °C and 5% CO2, according to previous published protocols. Cells were detached from the culture flask using 0.25% trypsin solution and then centrifuged at 500× g for 6.5 min. […]
Measurement Name: CC50

Request: Reported CC50, molecule CCc1nn(C)c(C(=O)NCc2ccc(Oc3ccc(C)cc3)cc2)c1Cl : ____
Response: > 50 µM

Reference for the values: paper PMC11855827
